# System: green peach aphid (Myzus persicae)
# Measurement description: Myzus test (MYZUPE spray treatment)
# Assay type: in vivo
# Condition set: in Brassica rapa, foliar, 144 h, read-out: activity (aphids killed)
Measure: pest or weed control at 100 g/ha (%)

> print(dat)
                                      smiles                           measure  unit  assay.value
 1  COC(=O)N(C)N(C)C(=O)c1cc(Cl)cc(C)c1NC(=O)c1cc(Cn2cc(C3CC3)nn2)nn1-c1ncccc1Cl  pest or weed control at 100 g/ha     %           80
 2  COC(=O)N(C)N(C)C(=O)c1cc(Cl)cc(C)c1NC(=O)c1cc(Cn2nnc(C(F)(F)F)n2)nn1-c1ncccc1Cl  pest or weed control at 100 g/ha     %          100
 3  COC(=O)N(C)NC(=O)c1cc(Cl)cc(C)c1NC(=O)c1cc(Cn2cc(-c3ccc(Cl)cc3)nn2)nn1-c1ncccc1Cl  pest or weed control at 100 g/ha     %          100
 4  COC(=O)N(C)NC(=O)c1cc(I)cc(C)c1NC(=O)c1cc(Cn2ncc(C(F)(F)F)n2)nn1-c1ncccc1Cl  pest or weed control at 100 g/ha     %           90
 5  COC(=O)N(C)NC(=O)c1cc(C#N)cc(C)c1NC(=O)c1cc(Cn2cnc(C(F)(F)F)c2)nn1-c1ncccc1Cl  pest or weed control at 100 g/ha     %           90
 6  COC(=O)N(C)NC(=O)c1cc(Cl)cc(C)c1NC(=O)c1cc(Cn2nc(C(F)F)cc2C(F)F)nn1-c1ncccc1Cl  pest or weed control at 100 g/ha     %          100
 7  COC(=O)N(C)NC(=O)c1cc(C#N)cc(C)c1NC(=O)c1cc(Cn2ncc(C(F)(F)F)n2)nn1-c1ncccc1Cl  pest or weed control at 100 g/ha     %          100
 8  COC(=O)N(C)NC(=O)c1cc(Cl)cc(C)c1NC(=O)c1cc(Cn2nnnc2C(F)F)nn1-c1ncccc1Cl  pest or weed control at 100 g/ha     %          100
 9  COC(=O)NNC(=O)c1cc(Cl)cc(C)c1NC(=O)c1cc(Cn2nnc(C(F)(F)F)n2)nn1-c1ncccc1Cl  pest or weed control at 100 g/ha     %          100
10  COC(=O)N(C)NC(=O)c1cc(I)cc(C)c1NC(=O)c1cc(Cn2cnc(C(F)(F)F)n2)nn1-c1ncccc1Cl  pest or weed control at 100 g/ha     %          100
11  COC(=O)N(C)NC(=O)c1cc(Cl)cc(C)c1NC(=O)c1cc(Cn2nc(C)c(Br)c2C)nn1-c1ncccc1Cl  pest or weed control at 100 g/ha     %           80
12  COC(=O)N(C)NC(=O)c1cc(C#N)cc(C)c1NC(=O)c1cc(Cn2nc(C(F)F)cc2C(F)F)nn1-c1ncccc1Cl  pest or weed control at 100 g/ha     %          100
13  COC(=O)N(C)NC(=O)c1cc(Cl)cc(Cl)c1NC(=O)c1cc(Cn2nc(C(F)F)cc2C(F)F)nn1-c1ncccc1Cl  pest or weed control at 100 g/ha     %          100
14  COC(=O)N(C)NC(=O)c1cc(Cl)cc(C)c1NC(=O)c1cc(Cn2ncc(C(F)(F)F)n2)nn1-c1ncccc1Cl  pest or weed control at 100 g/ha     %          100
15  COC(=O)N(C)NC(=O)c1cc(Cl)cc(Cl)c1NC(=O)c1cc(Cn2nc(C(F)(F)F)c(Cl)c2C)nn1-c1ncccc1Cl  pest or weed control at 100 g/ha     %           90
16  COC(=O)N(C)N(C)C(=O)c1cc(C#N)cc(C)c1NC(=O)c1cc(Cn2nnc(C(F)(F)F)n2)nn1-c1ncccc1Cl  pest or weed control at 100 g/ha     %          100
17  COC(=O)N(C)NC(=O)c1cc(C#N)cc(C)c1NC(=O)c1cc(Cn2cc(C(F)(F)F)nn2)nn1-c1ncccc1Cl  pest or weed control at 100 g/ha     %           90
18  COC(=O)NNC(=O)c1cc(Cl)cc(C)c1NC(=O)c1cc(Cn2nnc(C(F)(F)C(F)(F)C(F)(F)F)n2)nn1-c1ncccc1Cl  pest or weed control at 100 g/ha     %           90
19  COC(=O)N(C)N(C)C(=O)c1cc(C#N)cc(C)c1NC(=O)c1cc(Cn2nnc(C(F)(F)C(F)(F)C(F)(F)F)n2)nn1-c1ncccc1Cl  pest or weed control at 100 g/ha     %          100
20  COC(=O)N(C)NC(=O)c1cc(I)cc(C)c1NC(=O)c1cc(Cn2nnnc2C(F)(F)F)nn1-c1ncccc1Cl  pest or weed control at 100 g/ha     %          100
21  COC(=O)NNC(=O)c1cc(C#N)cc(C)c1NC(=O)c1cc(Cn2nnc(C(F)(F)F)n2)nn1-c1ncccc1Cl  pest or weed control at 100 g/ha     %          100
22  COC(=O)N(C)NC(=O)c1cc(Cl)cc(Cl)c1NC(=O)c1cc(Cn2nc(C(F)(F)F)cc2C)nn1-c1ncccc1Cl  pest or weed control at 100 g/ha     %          100
23  COC(=O)N(C)NC(=O)c1cc(F)cc(C)c1NC(=O)c1cc(Cn2nnc(C(F)F)n2)nn1-c1ncccc1Cl  pest or weed control at 100 g/ha     %          100
24  COC(=O)N(C)NC(=O)c1cc(Br)cc(C)c1NC(=O)c1cc(Cn2nnc(C(F)F)n2)nn1-c1ncccc1Cl  pest or weed control at 100 g/ha     %          100
25  COC(=O)N(C)NC(=O)c1cc(Cl)cc(Cl)c1NC(=O)c1cc(Cn2nnc(C(F)(F)C(F)(F)F)n2)nn1-c1ncccc1Cl  pest or weed control at 100 g/ha     %          100
26  COC(=O)N(C)NC(=O)c1cc(Cl)cc(C)c1NC(=O)c1cc(Cn2nc(C(F)(F)C(F)(F)C(F)(F)F)cc2C)nn1-c1ncccc1Cl  pest or weed control at 100 g/ha     %          100
